testedTarget: xanthine oxidase (Homo sapiens)
Sequence (P47989 whole entry, species assumed): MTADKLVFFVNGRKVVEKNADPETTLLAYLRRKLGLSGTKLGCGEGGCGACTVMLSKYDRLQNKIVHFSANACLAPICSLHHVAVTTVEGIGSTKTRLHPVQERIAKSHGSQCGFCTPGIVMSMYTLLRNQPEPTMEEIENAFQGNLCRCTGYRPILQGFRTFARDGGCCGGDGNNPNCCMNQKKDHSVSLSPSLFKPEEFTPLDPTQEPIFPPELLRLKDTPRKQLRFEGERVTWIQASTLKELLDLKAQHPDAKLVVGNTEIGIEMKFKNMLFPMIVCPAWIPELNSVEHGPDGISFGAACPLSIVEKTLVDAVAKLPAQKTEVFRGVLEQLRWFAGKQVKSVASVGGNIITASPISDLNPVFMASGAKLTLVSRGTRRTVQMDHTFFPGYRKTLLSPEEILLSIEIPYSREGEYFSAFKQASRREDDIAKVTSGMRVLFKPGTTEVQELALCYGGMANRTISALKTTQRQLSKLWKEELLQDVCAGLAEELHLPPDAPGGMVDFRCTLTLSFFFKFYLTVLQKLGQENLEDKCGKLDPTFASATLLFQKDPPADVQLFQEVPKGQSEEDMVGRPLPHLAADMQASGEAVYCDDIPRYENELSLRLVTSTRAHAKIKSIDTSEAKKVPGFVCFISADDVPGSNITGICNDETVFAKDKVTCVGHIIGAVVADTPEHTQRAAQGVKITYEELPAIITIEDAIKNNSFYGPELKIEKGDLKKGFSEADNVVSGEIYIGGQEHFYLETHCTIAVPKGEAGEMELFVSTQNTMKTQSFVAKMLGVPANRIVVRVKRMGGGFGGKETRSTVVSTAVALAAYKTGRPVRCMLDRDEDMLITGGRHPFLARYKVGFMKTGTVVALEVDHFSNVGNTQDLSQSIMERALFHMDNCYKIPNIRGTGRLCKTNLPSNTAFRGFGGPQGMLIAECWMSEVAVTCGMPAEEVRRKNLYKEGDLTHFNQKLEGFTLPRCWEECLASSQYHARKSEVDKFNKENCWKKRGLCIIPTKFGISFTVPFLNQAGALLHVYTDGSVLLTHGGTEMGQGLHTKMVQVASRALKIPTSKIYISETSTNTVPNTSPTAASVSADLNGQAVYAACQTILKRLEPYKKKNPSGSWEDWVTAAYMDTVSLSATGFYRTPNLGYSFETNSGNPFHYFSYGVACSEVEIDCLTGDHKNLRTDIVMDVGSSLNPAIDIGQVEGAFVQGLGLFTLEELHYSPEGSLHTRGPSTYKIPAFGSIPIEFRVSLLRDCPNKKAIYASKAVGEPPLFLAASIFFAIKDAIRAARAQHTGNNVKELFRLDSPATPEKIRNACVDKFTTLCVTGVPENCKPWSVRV
Assign labels as follows, please: class 1 for IC50 below 40 µM; class 0 for IC50 equal to or exceeding 40 µM.

Reference set, count: 3
1. Cc1nc2ccccc2c(=O)n1/N=C/c1ccc(C#N)cc1: class 0
2. Cc1nc2ccc(Br)cc2c(=O)n1/N=C/c1ccc(-c2ccccn2)cc1: class 1
3. Cc1nc2ccc(Br)cc2c(=O)n1/N=C/c1ccc(C#N)cc1: class 0

Query compound follows.
Item Cc1nc2ccccc2c(=O)n1/N=C/c1ccc(-c2ccccn2)cc1 : IC50 beneath 40 µM, strictly? class 1

====

testedTarget: elastase
testMethodNotes: In vitro antiprotease activity
Type: biochemical
conditionNotes: 15 min preincubation
Class membership depends on mean IC50 against Elastase alone; the intervals are one: < 9 µg/mL; two: ≥ 9 µg/mL and < 20 µg/mL; three: ≥ 20 µg/mL

1. Cc1nc2ccccc2c(=O)n1/N=C/N(C)C [Compound 12]: one
2. COc1cc(-n2c(C)nc3ccc(Cl)cc3c2=O)cc(OC)c1OC [Compound 5c]: one
3. Cc1cccc(C)c1NC(=O)CSc1nc2ccccc2c(=O)n1-c1ccccc1 [Compound 15c]: two
4. Cc1nc2ccccc2c(=O)n1NC(=O)OCC(C)C [Compound 10]: one
5. Cc1nc2ccc(Br)cc2c(=O)n1/N=C/c1ccc2ccccc2c1 [Compound 8b]: three

Band assignment needed for Cc1nc2ccccc2c(=O)n1/N=C/c1ccc(-c2ccccc2)cc1 [Compound 8i] please. two

Tag the class for Cc1ccc2nc(SCC(=O)Nc3cccc(C)c3C)n(-c3ccccc3)c(=O)c2c1 [Compound 15f] two

Kindly identify the class of Cc1nc2ccc(Br)cc2c(=O)n1/N=C/c1ccc(C#N)cc1 [Compound 8h] . three

Which of the defined bands does the recorded mean IC50 against Elastase of COc1cccc(/C=N/n2c(C)nc3ccccc3c2=O)c1[N+](=O)[O-] [Compound 8e] sit within? one

Consider COc1cccc(/C=N/n2c(C)nc3ccc(Br)cc3c2=O)c1[N+](=O)[O-] [Compound 8f] . To which mean IC50 against Elastase class does it belong? three

Dear colleague, I would appreciate it if you could identify the bin for Cc1nc2ccccc2c(=O)n1/N=C/c1ccc(C#N)cc1 [Compound 8g] and reply at your convenience. two

====

testedTarget: thrombin (Homo sapiens)
testMethodNotes: In vitro antiprotease activity
Format: biochemical
conditionNotes: 15 min preincubation; read-out: mean IC50 against Thrombin (converted)
recordedMetric: log10 of IC50 (log10 of the value in µM)
Please interpret these as log10 of IC50 where IC50 is in µM.

Use these answered entries as a reference point.
1) Cc1nc2ccc(Br)cc2c(=O)n1/N=C/c1ccc(-c2ccccn2)cc1: 1.57
2) Cc1nc2ccccc2c(=O)n1/N=C/c1ccc2ccccc2c1: 2.04
3) COc1cccc(/C=N/n2c(C)nc3ccccc3c2=O)c1[N+](=O)[O-]: 0.65

Give its log10 of IC50 value. Item: Cc1ccc2nc(SCC(=O)Nc3c(C)cccc3C)n(-c3ccccc3)c(=O)c2c1 [Compound 15d] 1.60

====

Each entry below carries its reported mean IC50 against NmPLA2.
testedTarget: Naja mossambica mossambica sPLA2 (NmPLA2)
testMethodNotes: In vitro antiphospholipase activity
Assay type: biochemical
conditionNotes: 20 min preincubation, lecithin substrate, pH 7.6
Numeric only. Scale: µg/mL

1) Cc1nc2ccc(Br)cc2c(=O)n1/N=C/c1ccc(-c2ccccn2)cc1 [Compound 8d]: 6.55
2) COc1cc(-n2c(C)nc3ccc(F)cc3c2=O)cc(OC)c1OC [Compound 5b]: 4.15
3) Cc1ccc2nc(SCC(=O)Nc3cccc(C)c3C)n(-c3ccccc3)c(=O)c2c1 [Compound 15f]: 33.00
4) Cc1nc2ccc(Br)cc2c(=O)n1/N=C/c1ccc2ccccc2c1 [Compound 8b]: 16.25
5) COc1cccc(/C=N/n2c(C)nc3ccccc3c2=O)c1[N+](=O)[O-] [Compound 8e]: 7.75

Now turn to the next molecule.
Recorded mean IC50 against NmPLA2 of COc1cccc(/C=N/n2c(C)nc3ccc(Br)cc3c2=O)c1[N+](=O)[O-] [Compound 8f] , please. 6.00
